- Test system: SK-MEL-28 melanoma
- assayOverview: NCI tumour cell line growth inhibition, 48 h
measureName: TGI

>>> experimentalvalue("CCCc1[nH]nc(CCC(=O)N(Cc2ccccc2)Cc2ccccc2)c1CC")
"> 100 µM"
>>> experimentalvalue("CC(C)(C)N=c1n(C(C)(C)C)oc(=O)n1C(C)(C)C")
"> 100 µM"
>>> experimentalvalue("COC(=O)NN(C(=O)OC)c1c(-c2ccccc2)nc(SC)n1N")
"> 100 µM"
>>> experimentalvalue("O=c1c2c([nH]c3cc4c(cc13)OCO4)-c1ccccc1CC2")
"> 100 µM"
>>> experimentalvalue("Cc1cn2c(/C=C3/C(=O)Nc4cccc(Cl)c43)c(Cl)nc2s1")
"36.5 µM"
>>> experimentalvalue("O=C(Cn1ccc(=O)[nH]c1=O)Nc1ccc(C(=O)O)c(O)c1")
"> 100 µM"
